system: Plasmodium falciparum; assay: Antimalarial activity against Plasmodium falciparum 3D7 infected in human erythrocytes after 72 hrs by SYBR green dye fluorescence assay; type: functional, organism-based; conditions: 3D7, 72 h
pEC50: −log10 of the molar value.

compoundString	pEC50
COc1cc(CCCO)cc2cc(-c3ccc4c(c3)OCO4)oc12	5.12
COc1cc(CC/C=N/C2=C(C)C(=O)C=C(C(C)C)C2=O)cc2cc(-c3ccc4c(c3)OCO4)oc12	5.92
C[C@H]1[C@H](OC(=O)CCC(=O)OCC#CCOC(=O)CCC(=O)O[C@@H]2O[C@@H]3O[C@@]4(C)CC[C@H]5[C@H](C)CC[C@@H]([C@H]2C)[C@@]35OO4)O[C@@H]2O[C@@]3(C)CC[C@H]4[C@H](C)CC[C@@H]1[C@@]24OO3	8.42
COc1cc(CCCO[C@H]2O[C@@H]3O[C@@]4(C)CC[C@H]5[C@H](C)CC[C@@H]([C@H]2C)[C@@]35OO4)cc2cc(-c3ccc4c(c3)OCO4)oc12	7.55
C[C@H]1[C@@H](O)O[C@@H]2O[C@@]3(C)CC[C@H]4[C@H](C)CC[C@@H]1[C@@]24OO3	8.62
